- test.summary: Brain penetration (Kp,uu) in CD-1 mice, with plasma and brain tissue binding by equilibrium dialysis
- Format: in vivo
- cond: mouse, brain and plasma (unbound), male CD-1 mice, single IV bolus 1 mg/kg
experimental.endpoint: Kp uu

Worked examples, 5 compounds total:
structure.smiles.string	Kp uu
[2H]C([2H])([2H])c1n[nH]c2c1N=C(c1c(F)cccc1F)Nc1ccc(N3CCOCC3)cc1-2	0.2 to 0.4
Cc1n[nH]c2c1N=C(c1c(F)cccc1F)Nc1ccc(N3CCO[C@H](C)C3)cc1-2	0.2 to 0.4
Cc1n[nH]c2c1N=C(c1c(F)cccc1F)Nc1cnc(C#CC3(C)CCOCC3)cc1-2	0.2 to 0.4
CCc1n[nH]c2c1N=C(c1c(F)cccc1F)Nc1cnc(N3CCOCC3)cc1-2	0.2 to 0.4
[2H]C([2H])([2H])c1n[nH]c2c1N=C(c1c(F)cccc1F)Nc1ccc(N3CCO[C@H](C)C3)cc1-2	0.2 to 0.4

Determine from records and report Kp uu for Cc1n[nH]c2c1N=C(c1c(F)cccc1F)Nc1c-2cc(N2CCN(CC(F)(F)F)CC2)nc1C > 0.4

Query Kp uu for Cc1n[nH]c2c1N=C(c1c(F)cccc1F)Nc1ccc(N3CCO[C@@H](C)C3)cc1-2 0.2 to 0.4

Provide one value: measured Kp uu of Cc1n[nH]c2c1N=C(c1c(F)cccc1F)Nc1c-2cc(N2CCO[C@@H](C)C2)nc1C < 0.2

----------
- System: Caco-2 cells
- test.summary: Caco-2 bidirectional permeability
- Assay type: in vitro ADME
- cond: Efflux Ratio=Papp (BA)/Papp (AB)
experimental.endpoint: Caco-2 ER

molecule	experimental.endpoint	result
[2H]C([2H])([2H])c1n[nH]c2c1N=C(c1c(F)cccc1F)Nc1cnc(N3CCOCC3)cc1-2 [Example 32]	Caco-2 ER	L (L (Likely)”: ER>2.5)
Cc1n[nH]c2c1N=C(c1c(F)cccc1F)Nc1c-2cc(N2CC3(CCOCC3)C2)nc1C [Example 47]	Caco-2 ER	L (L (Likely)”: ER>2.5)

----------
The following molecules are listed with their measured Kp uu values.
- test.summary: Brain penetration (Kp,uu) in CD-1 mice, with plasma and brain tissue binding by equilibrium dialysis
- Assay type: in vivo
- cond: mouse, brain and plasma (unbound), male CD-1 mice, single IV bolus 1 mg/kg

molecule	Kp uu
Cc1n[nH]c2c1N=C(c1c(F)cccc1F)Nc1c-2cc(N2CCN(CC(F)F)CC2)nc1C [Example 19]	> 0.4
Cc1n[nH]c2c1N=C(c1c(F)cccc1F)Nc1cnc(-c3cnn(C(F)F)c3)cc1-2 [Example 1]	0.2 to 0.4
Cc1n[nH]c2c1N=C(c1c(F)cc(F)cc1F)Nc1ccc(N3CCOCC3)cc1-2 [Example 27]	0.2 to 0.4

Switching to the query record.
Using known records, supply Kp uu for Cc1n[nH]c2c1N=C(c1c(F)cccc1F)Nc1ccc(N3CCN(CCF)CC3)cc1-2 [Example 25] 0.2 to 0.4

----------
- test.summary: Human hepatocyte stability, in vitro h-Hept CLpredict
- Type: in vitro ADME
- cond: cryopreserved hepatocytes, predicted hepatic clearance, cells without asterisk, read-out: hHep Cl
Parameter CLhep predicted at 1 µM: see the listing below.

Solved entries:
compound	CLhep predicted at 1 µM
Cc1n[nH]c2c1N=C(c1c(F)cccc1F)Nc1c-2cc(N2CCOCC2)nc1C(F)F [Example 44]	6.3 to 14.7 mL/min/kg
[2H]C([2H])([2H])c1n[nH]c2c1N=C(c1c(F)cccc1F)Nc1cnc(N3CCOCC3)cc1-2 [Example 32]	< 6.3 mL/min/kg
[2H]C1([2H])OC([2H])([2H])C([2H])([2H])N(c2ccc3c(c2)-c2[nH]nc(C)c2N=C(c2c(F)cccc2F)N3)C1([2H])[2H] [Example 22]	6.3 to 14.7 mL/min/kg

Give me measured CLhep predicted at 1 µM, please, for this compound: Cc1n[nH]c2c1N=C(c1c(F)cccc1F)Nc1ccc(-c3ccn(C(F)F)n3)cc1-2 [Example 14] > 14.7 mL/min/kg

For Cc1n[nH]c2c1N=C(c1c(F)cccc1F)Nc1ccc(N3CCO[C@@H](C)C3)cc1-2 [Example 26] , write its CLhep predicted at 1 µM. < 6.3 mL/min/kg

Identify the reported CLhep predicted at 1 µM for the following entry. CCc1n[nH]c2c1N=C(c1c(F)cccc1F)Nc1cnc(N3CCO[C@@H](C)C3)cc1-2 [Example 35] < 6.3 mL/min/kg

In one line, give reported CLhep predicted at 1 µM of the entry Cc1n[nH]c2c1N=C(c1c(F)cccc1F)Nc1c-2cc(N2CC3(CCOCC3)C2)nc1C [Example 47] . 6.3 to 14.7 mL/min/kg

Give me measured CLhep predicted at 1 µM, please, for this compound: Cc1n[nH]c2c1N=C(c1c(F)cccc1F)Nc1cnc(C#CC3(C)CCOCC3)cc1-2 [Example 17] > 14.7 mL/min/kg

----------
- test.summary: Brain penetration (Kp,uu) in CD-1 mice, with plasma and brain tissue binding by equilibrium dialysis
- Type: in vivo
- cond: mouse, brain and plasma (unbound), male CD-1 mice, single IV bolus 1 mg/kg
- Experimental: The compounds disclosed herein were tested on CD-1 mice for brain penetration (Kp, uu) according to the following procedures. Nine male CD-1 mice were administered TEST COMPOUND by single intravenous bolus administration at 1 mg/kg. […] The concentrations of TEST COMPOUND in plasma and brain were determined by using an LC-MS/MS method. […] Individual plasma and brain concentration values that were below the lower limit of quantitation (LLOQ) were excluded from the PK parameter calculation. […]
experimental.endpoint: Kp uu

Answered cases to consult:
molecule	experimental.endpoint	result
Cc1n[nH]c2c1N=C(c1c(F)cccc1F)Nc1cnc(-c3ccn(C(F)F)n3)cc1-2 [Example 12]	Kp uu	< 0.2
Cc1n[nH]c2c1N=C(c1c(F)cccc1F)N1CCc3nc(N4CCOCC4)cc-2c31 [Example 42]	Kp uu	0.2 to 0.4
Cc1n[nH]c2c1N=C(c1c(F)cccc1F)Nc1c-2cc(N2CCN(CCF)[C@@H](C)C2)nc1C [Example 21]	Kp uu	0.2 to 0.4
Cn1nccc1-c1cc2c(cn1)NC(c1c(F)cccc1F)=Nc1c(Cl)n[nH]c1-2 [Example 59]	Kp uu	< 0.2
[2H]C([2H])([2H])c1n[nH]c2c1N=C(c1c(F)cccc1F)Nc1ccc(N3CCO[C@@H](C)C3)cc1-2 [Example 34]	Kp uu	0.2 to 0.4
Cc1n[nH]c2c1N=C(c1c(F)cccc1F)Nc1c-2cc(N2CCN(C)[C@@H](C(F)(F)F)C2)nc1C (single isomer, unassigned) [Example 37]	Kp uu	0.2 to 0.4

Then this molecule:
State its Kp uu for this molecule: Cc1n[nH]c2c1N=C(c1c(F)cccc1F)Nc1ccc(-c3cnn(C(F)F)c3)cc1-2 [Example 13] > 0.4

----------
- test.summary: Human hepatocyte stability, in vitro h-Hept CLpredict
- Type: in vitro ADME
- cond: cryopreserved hepatocytes, predicted hepatic clearance, cells without asterisk, read-out: hHep Cl
experimental.endpoint: CLhep predicted at 1 µM

compound	experimental.endpoint	result
[2H]C([2H])([2H])c1n[nH]c2c1N=C(c1c(F)cccc1F)Nc1ccc(N3CCOCC3)cc1-2 [Example 33]	CLhep predicted at 1 µM	< 6.3 mL/min/kg

Give the reported value of CLhep predicted at 1 µM for this record: Cc1n[nH]c2c1N=C(c1c(F)cccc1F)Nc1c(F)cc(N3CCOCC3)cc1-2 [Example 30] 6.3 to 14.7 mL/min/kg

Quickly give me recorded CLhep predicted at 1 µM for Cc1n[nH]c2c1N=C(c1c(F)cccc1F)Nc1cnc(N3CC4CC4C3)cc1-2 (stereo not shown) [Example 56] > 14.7 mL/min/kg

----------
- test.summary: Human hepatocyte stability, in vitro h-Hept CLpredict
- Type: in vitro ADME
- cond: cryopreserved hepatocytes, predicted hepatic clearance, cells without asterisk, read-out: hHep Cl
experimental.endpoint: CLhep predicted at 1 µM

Retrieve CLhep predicted at 1 µM measured for [2H]C([2H])([2H])c1n[nH]c2c1N=C(c1c(F)cccc1F)Nc1ccc(N3CCO[C@@H](C)C3)cc1-2 and print it. < 6.3 mL/min/kg

----------
Each item that follows carries a reported IC50.
- assay.system: wt human LRRK2, catalytic site (Homo sapiens, UniProt Q5S007)
- Construct: wt human LRRK2, catalytic site, catalytic site (ThermoFisher/USA)
- Sequence (Q5S007 1879-2138 limits assumed): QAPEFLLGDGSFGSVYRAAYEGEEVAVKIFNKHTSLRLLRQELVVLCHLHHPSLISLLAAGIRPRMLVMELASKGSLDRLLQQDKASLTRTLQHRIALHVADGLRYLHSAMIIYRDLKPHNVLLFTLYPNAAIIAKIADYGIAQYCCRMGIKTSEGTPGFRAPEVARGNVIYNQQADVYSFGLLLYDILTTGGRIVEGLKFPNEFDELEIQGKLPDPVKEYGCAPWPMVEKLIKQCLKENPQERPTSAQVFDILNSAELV
- test.summary: TR-FRET LanthaScreen Tb Kinase Activity Assay, LRRK2 kinase inhibition
- cond: 2 nM wt human LRRK2, 400 nM peptide, 38 μM ATP

Past entries and their recorded results:
compound	result
Cc1n[nH]c2c1N=C(c1c(F)cccc1F)Nc1c-2cc(N2CC3CC(C2)O3)nc1C	< 2 nM
Cc1n[nH]c2c1N=C(c1c(F)cccc1F)Nc1c-2cc(N2CCOCC2)nc1C(F)(F)F	2 to 100 nM
[2H]C([2H])([2H])c1n[nH]c2c1N=C(c1c(F)cccc1F)Nc1cnc(N3CCOCC3)cc1-2	< 2 nM
Cc1n[nH]c2c1N=C(c1c(F)cccc1F)Nc1c-2cc(N2CCOCC2)nc1C(F)F	< 2 nM
Cc1n[nH]c2c1N=C(c1c(F)cccc1F)Nc1cnc(-n3ccc(C(F)(F)F)n3)cc1-2	< 2 nM
Cc1n[nH]c2c1N=C(c1c(F)cccc1F)Nc1c-2cc(N2CCN(C)[C@@H](C(F)(F)F)C2)nc1C (single isomer, unassigned)	< 2 nM
Cc1n[nH]c2c1N=C(c1c(F)cccc1F)Nc1ccc(N3CCOCC3)cc1-2	< 2 nM
Cc1n[nH]c2c1N=C(c1c(F)cccc1F)Nc1ccc(N3C[C@H](C)O[C@@H](C)C3)cc1-2	< 2 nM
Cc1n[nH]c2c1N=C(c1c(F)cccc1F)Nc1cnc(-n3ccc(C#N)n3)cc1-2	2 to 100 nM
[2H]C([2H])([2H])c1n[nH]c2c1N=C(c1c(F)cccc1F)Nc1ccc(N3CCO[C@H](C)C3)cc1-2	2 to 100 nM

Return IC50 for the following compound: Cc1n[nH]c2c1N=C(c1c(F)cccc1F)Nc1ccc(N3CCN(CCF)CC3)cc1-2 < 2 nM

Provide IC50 value for the following compound: Cc1n[nH]c2c1N=C(c1c(F)cccc1F)Nc1ccc(-c3cnn(C(F)F)c3)cc1-2 < 2 nM

Give IC50 for the following compound: Cc1n[nH]c2c1N=C(c1c(F)cccc1F)Nc1c-2cc(N2CCC[C@@]3(CCOC3)C2)nc1C (single isomer, unassigned) [Example 50] < 2 nM

Please give the documented IC50 of Cc1n[nH]c2c1N=C(c1c(F)cccc1F)Nc1c-2cc(N2CCN(CC(C)F)CC2)nc1C (racemic) < 2 nM

Given [2H]C1([2H])OC([2H])([2H])C([2H])([2H])N(c2ccc3c(c2)-c2[nH]nc(C)c2N=C(c2c(F)cccc2F)N3)C1([2H])[2H] , respond with its IC50. < 2 nM
